molecular target: dDATNET (Drosophila melanogaster, UniProt Q7K4Y6, D121G/DEL162-202/F471L/L415A/S426M/V74A); construct: GFP-8x-His (C); made in house; host or cells: HEK293S GnTI- cells, BacMam baculovirus transduction; test: biochemical; format: binding; conditions: Binding Ki with dDATNET (vs. Nisoxetine), 50 nM [3H] nisoxetine; Cheng-Prusoff
endpoint name: pKi
Please treat pKi as minus the base-10 logarithm of the molar concentration.

*Q* Could you share which pKi value was measured for CCN(CC)C(=O)[C@]1(c2ccccc2)C[C@@H]1CN ?
*A* 6.22

* * *

molecular target: dDATfc (Drosophila melanogaster dopamine transporter functional construct) (Drosophila melanogaster, UniProt Q7K4Y6, DEL164-191/F471L/L415A/V74A); construct: expressed in transfected cells; host or cells: HEK293S GnTI- cells, transient transfection with pEG-BacMam plasmid; experiment: cell-based
endpoint name: Ki (µM)
Return type: number; implicit unit µM.

*Q* Can you look up the measured Ki of COc1cccc(C2(O)CCCCC2CN(C)C)c1 (centres unmarked) for me?
*A* 15.9

*Q* What does the record list as Ki for CCN(CC)C(=O)[C@]1(c2ccccc2)C[C@@H]1CN ?
*A* 1.5
